The origin of these recorded values is ChEMBL document CHEMBL5046266.

Catalogue of IC50 values
Biological target: UniProt P14324
Sequence (P14324 whole entry): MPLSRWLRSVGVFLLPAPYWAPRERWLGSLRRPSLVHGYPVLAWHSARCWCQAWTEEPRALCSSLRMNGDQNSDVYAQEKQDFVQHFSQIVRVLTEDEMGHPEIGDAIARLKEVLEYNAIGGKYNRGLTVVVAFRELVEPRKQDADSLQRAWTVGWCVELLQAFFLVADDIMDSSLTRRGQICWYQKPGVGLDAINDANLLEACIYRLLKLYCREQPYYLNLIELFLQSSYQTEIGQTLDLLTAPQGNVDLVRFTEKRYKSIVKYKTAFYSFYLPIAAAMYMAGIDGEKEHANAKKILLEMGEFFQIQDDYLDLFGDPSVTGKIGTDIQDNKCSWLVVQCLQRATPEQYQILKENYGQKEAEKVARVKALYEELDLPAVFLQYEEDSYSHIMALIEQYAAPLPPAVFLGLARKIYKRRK
Answer by giving the amount and then stating its unit.

SMILES_REPRESENTATION	IC50
COc1ccc([C@H](OC(C)C)C(=O)Nc2cccc(-c3nc(NC(P(=O)(O)O)P(=O)(O)O)c4ccsc4n3)c2)cc1F	460 nM

Next compound, IC50 to be filled in.
Item: `COc1ccc([C@@H](OC(C)C)C(=O)Nc2cccc(-c3nc(NC(P(=O)(O)O)P(=O)(O)O)c4ccsc4n3)c2)cc1F` Test system: UniProt P14324 Read-out: IC50 Value: ?
730 nM
